Tested on: Mus musculus
assay_overview: Percentage uM/kg)
Type: functional
This section presents molecules with their documented Parasitemia values.
Record the value in %, omitting the unit from your answer.

C[C@@H]1CCC2[C@@H](C)[C@](OCC(F)(F)F)(C(F)(F)F)OC3O[C@]4(C)CCC1[C@]32OO4 (stereo partly drawn) ... 0
C[C@@H]1CCC2[C@@H](C)[C@](OO)(C(F)(F)F)OC3O[C@]4(C)CCC1[C@]32OO4 (stereo partly drawn) ... 28.3

Input: Under Mus musculus, report Parasitemia for CCO[C@@]1(C(F)(F)F)OC2O[C@]3(C)CCC4[C@H](C)CCC([C@H]1C)[C@@]24OO3 (stereo partly drawn)
Output: 0

* * *

This section presents compounds with their documented Parasitemia values.
Tested on: Mus musculus
assay_overview: Percentage uM/kg)
Format: functional
A bare number is not enough; add the unit after it.

CO[C@@]1(C(F)(F)F)OC2O[C@]3(C)CCC4[C@H](C)CCC([C@H]1C)[C@@]24OO3 (some centres not stated) ... 0%

Input: Hello, please tell me recorded Parasitemia for this one: C[C@@H]1CC[C@H]2[C@@H](C)[C@](OCC(O)CO)(C(F)(F)F)OC3O[C@]4(C)CC[C@@H]1[C@]32OO4 (some centres not stated)
Output: 12.1%

Input: Hello, please tell me recorded Parasitemia for this one: COC1O[C@@H]2O[C@]3(C)CCC4[C@H](C)CCC([C@H]1C)[C@]42OO3 (some centres not stated)
Output: 5.5%

Input: Hello, please tell me recorded Parasitemia for this one: COc1ccc(N[C@@]2(C(F)(F)F)OC3O[C@]4(C)CCC5[C@H](C)CCC([C@H]2C)[C@@]35OO4)cc1 (some centres not stated)
Output: 0%

Input: Hello, please tell me recorded Parasitemia for this one: C[C@@H]1CC[C@H]2[C@@H](C)[C@](O)(C(F)(F)F)O[C@@H]3O[C@]4(C)CC[C@@H]1[C@]32OO4
Output: 10.7%

Input: Hello, please tell me recorded Parasitemia for this one: C[C@@H]1CC[C@H]2[C@@H](C)[C@](OCC=O)(C(F)(F)F)OC3O[C@]4(C)CC[C@@H]1[C@]32OO4 (some centres not stated)
Output: 7.8%

Input: Hello, please tell me recorded Parasitemia for this one: C[C@@H]1CC[C@H]2[C@@H](C)[C@](OCc3ccc(C(=O)[O-])cc3)(C(F)(F)F)OC3O[C@]4(C)CC[C@@H]1[C@]32OO4.[Na+] (some centres not stated)
Output: 26.8%

* * *

Tested on: Mus musculus
assay_overview: Percentage uM/kg)
Format: functional
Parameters: concentration or dose not given beside the values
This section presents molecules with their documented Parasitemia values.
Record the value in %, omitting the unit from your answer.

Past entries and their recorded results:
C[C@@H]1CC[C@H]2[C@@H](C)[C@](OCC=O)(C(F)(F)F)OC3O[C@]4(C)CC[C@@H]1[C@]32OO4 (stereo partly specified) ... 0.2
C[C@@H]1CC[C@H]2[C@@H](C)[C@](OCC(=O)O)(C(F)(F)F)OC3O[C@]4(C)CC[C@@H]1[C@]32OO4 (stereo partly specified) ... 47.5
C[C@@H]1CC[C@H]2[C@@H](C)[C@](OCc3ccc(C(=O)[O-])cc3)(C(F)(F)F)OC3O[C@]4(C)CC[C@@H]1[C@]32OO4.[Na+] (stereo partly specified) ... 25.9

Input: Hello, please tell me recorded Parasitemia for this one: COc1ccc(N[C@@]2(C(F)(F)F)OC3O[C@]4(C)CCC5[C@H](C)CCC([C@H]2C)[C@@]35OO4)cc1 (stereo partly specified)
Output: 0

Input: Hello, please tell me recorded Parasitemia for this one: CCO[C@@]1(C(F)(F)F)OC2O[C@]3(C)CCC4[C@H](C)CCC([C@H]1C)[C@@]24OO3 (stereo partly specified)
Output: 0

Input: Hello, please tell me recorded Parasitemia for this one: C[C@@H]1CCC2[C@@H](C)[C@](OCC(F)(F)F)(C(F)(F)F)OC3O[C@]4(C)CCC1[C@]32OO4 (stereo partly specified)
Output: 0

Input: Hello, please tell me recorded Parasitemia for this one: C[C@@H]1CC[C@H]2[C@@H](C)[C@](O)(C(F)(F)F)O[C@@H]3O[C@]4(C)CC[C@@H]1[C@]32OO4
Output: 4

Input: Hello, please tell me recorded Parasitemia for this one: COC1O[C@@H]2O[C@]3(C)CCC4[C@H](C)CCC([C@H]1C)[C@]42OO3 (stereo partly specified)
Output: 2.2

Input: Hello, please tell me recorded Parasitemia for this one: C[C@@H]1CCC2[C@@H](C)[C@](OO)(C(F)(F)F)OC3O[C@]4(C)CCC1[C@]32OO4 (stereo partly specified)
Output: 5.5

Input: Hello, please tell me recorded Parasitemia for this one: CO[C@@]1(C(F)(F)F)OC2O[C@]3(C)CCC4[C@H](C)CCC([C@H]1C)[C@@]24OO3 (stereo partly specified)
Output: 0

Input: Hello, please tell me recorded Parasitemia for this one: C[C@@H]1CC[C@H]2[C@@H](C)[C@](OCC(O)CO)(C(F)(F)F)OC3O[C@]4(C)CC[C@@H]1[C@]32OO4 (stereo partly specified)
Output: 2.1

* * *

assay_overview: Plasmatic Half-life after intravenous administration to rat
Assay type: ADME, organism-based
test_conditions: plasma
readout_type: half-life (min)
Record the value in min, omitting the unit from your answer.

C[C@@H]1CCC2[C@@H](C)[C@@H](O)OC3O[C@]4(C)CCC1[C@]32OO4 (some centres not stated) ... 26.3

Turning to the following molecule.
Input: Hello, please tell me recorded half-life for this one: C[C@@H]1CC[C@H]2[C@@H](C)[C@](O)(C(F)(F)F)O[C@@H]3O[C@]4(C)CC[C@@H]1[C@]32OO4
Output: 85.9

* * *

assay_overview: Half-life at pH 1
Type: ADME
test_conditions: buffer
This section presents compounds with their documented log10 half-life values.
Response schema: value (number) is log10 of half-life in units of days.

CCO[C@@]1(C(F)(F)F)OC2O[C@]3(C)CCC4[C@H](C)CCC([C@H]1C)[C@@]24OO3 (stereo not given in full) ... 1.32

Input: Hello, please tell me recorded log10 half-life for this one: CO[C@@]1(C(F)(F)F)OC2O[C@]3(C)CCC4[C@H](C)CCC([C@H]1C)[C@@]24OO3 (stereo not given in full)
Output: 1.44

Input: Hello, please tell me recorded log10 half-life for this one: C[C@@H]1CC[C@H]2[C@@H](C)[C@](OCc3ccc(C(=O)[O-])cc3)(C(F)(F)F)OC3O[C@]4(C)CC[C@@H]1[C@]32OO4.[Na+] (stereo not given in full)
Output: 1.45

Input: Hello, please tell me recorded log10 half-life for this one: C[C@@H]1CCC2[C@@H](C)[C@](OCC(F)(F)F)(C(F)(F)F)OC3O[C@]4(C)CCC1[C@]32OO4 (stereo not given in full)
Output: 0.95

Input: Hello, please tell me recorded log10 half-life for this one: COc1ccc(N[C@@]2(C(F)(F)F)OC3O[C@]4(C)CCC5[C@H](C)CCC([C@H]2C)[C@@]35OO4)cc1 (stereo not given in full)
Output: 0.10
